- target.desc: human ADAMTS-5 (Homo sapiens (Human))
- Sequence (Q9UNA0 262-930): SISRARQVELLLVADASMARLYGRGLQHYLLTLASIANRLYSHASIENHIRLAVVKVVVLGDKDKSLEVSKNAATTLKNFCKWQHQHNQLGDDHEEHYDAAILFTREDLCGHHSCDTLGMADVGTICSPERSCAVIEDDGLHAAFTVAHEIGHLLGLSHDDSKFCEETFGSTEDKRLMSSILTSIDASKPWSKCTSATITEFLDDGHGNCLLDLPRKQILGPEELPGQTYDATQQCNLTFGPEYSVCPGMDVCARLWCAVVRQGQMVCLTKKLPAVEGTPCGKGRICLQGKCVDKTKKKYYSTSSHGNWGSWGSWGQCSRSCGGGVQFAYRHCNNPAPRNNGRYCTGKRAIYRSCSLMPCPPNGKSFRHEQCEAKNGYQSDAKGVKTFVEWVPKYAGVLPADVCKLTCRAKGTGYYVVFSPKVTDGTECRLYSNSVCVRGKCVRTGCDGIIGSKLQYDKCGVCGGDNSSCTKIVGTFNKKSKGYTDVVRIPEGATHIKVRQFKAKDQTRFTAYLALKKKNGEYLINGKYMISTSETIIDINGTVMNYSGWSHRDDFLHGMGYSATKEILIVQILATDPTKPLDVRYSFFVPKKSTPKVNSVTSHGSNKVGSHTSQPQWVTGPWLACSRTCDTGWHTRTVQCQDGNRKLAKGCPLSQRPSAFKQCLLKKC
- test.settings: read-out: hADAMTS-5 potency IC50
value.kind: IC50

C[C@@H]1CN(C(=O)CCC2(C3CC3)NC(=O)NC2=O)CCN1c1ccccc1 (some centres unmarked) ... 1170 nM
Cc1ccccc1N1CCN(C(=O)CCC2(C(C)C)NC(=O)NC2=O)CC1 (centres unmarked) ... 385 nM
O=C1NC(=O)C(CCC(=O)N2CCN(c3ccccc3)CC2)(C2CC2)N1 (centres unmarked) ... 101 nM
Cc1c(F)cccc1N1CCN(C(=O)CCC2(c3cccnc3)NC(=O)NC2=O)CC1 (centres unmarked) ... 168 nM
O=C1NC(=O)C(CCC(=O)N2CCN(c3ccccc3Cl)CC2)(c2ccccc2)N1 (centres unmarked) ... 1280 nM
O=C1NC(=O)C(CCC(=O)N2CCN(c3ccc(F)c(F)c3)CC2)(c2cccnc2)N1 (centres unmarked) ... 85 nM
Cc1ccc(Cl)cc1N1CCN(C(=O)CCC2(C3CC3)NC(=O)NC2=O)CC1 (centres unmarked) ... 34 nM
C[C@H]1CN(C(=O)CCC2(c3ccccc3)NC(=O)NC2=O)CCN1c1ccccc1 (some centres unmarked) ... 240 nM

---

- target.desc: human ADAMTS-5 (Homo sapiens (Human))
- test.settings: read-out: hADAMTS-5 potency IC50
value.kind: log10 of IC50 (log10 of the value in µM)

C[C@@H]1CN(C(=O)CCC2(c3cccnc3)NC(=O)NC2=O)CCN1c1ccccc1 (some centres unmarked) [compound 134] ... 0.27
Cc1ccc(Cl)cc1N1CCN(C(=O)CCC2(c3ccccn3)NC(=O)NC2=O)CC1 (centres unmarked) [compound 65] ... -1.30
O=C1NC(=O)C(CCC(=O)N2CCN(c3ccc4cnccc4c3)CC2)(c2ccccc2)N1 (centres unmarked) [compound 14] ... -0.05
COc1ccc(C2(CCC(=O)N3CCN(c4cccc(Cl)c4)CC3)NC(=O)NC2=O)cc1 (centres unmarked) [compound 78] ... -1.10
O=C1NC(=O)C(CCC(=O)N2CCN(c3cccc(Cl)c3)CC2)(C2CCCC2)N1 (centres unmarked) [compound 109] ... -0.58
Cc1cccc(N2CCN(C(=O)CCC3(c4ccccn4)NC(=O)NC3=O)CC2)c1C (centres unmarked) [compound 101] ... -0.81
CC1(CCC(=O)N2CCN(c3ccc(F)c(Cl)c3)CC2)NC(=O)NC1=O (centres unmarked) [compound 52] ... -0.55
O=C1NC(=O)C(CCC(=O)N2CCN(c3ccc(F)c(Cl)c3)CC2)(c2ccccn2)N1 (centres unmarked) [compound 96] ... -1.31

---

Entries and their pIC50
- target.desc: human MMP13 (Homo sapiens (Human))
- test.settings: read-out: hMMP-13 potency IC50
pIC50: −log10 of the molar value.
value.kind: pIC50

CC(CC1NC(=O)NC1=O)C(=O)N1CCN(c2cc(Cl)cc(Cl)c2)CC1 (centres unmarked) [compound 200] ... < 4.70
Cc1c(Cl)cc(Cl)cc1N1CCN(C(=O)CCC2(C)NC(=O)NC2=O)CC1 (centres unmarked) ... < 4.70
CC(CC1(C2CC2)NC(=O)NC1=O)C(=O)N1CCN(c2cc(F)cc(Cl)c2)[C@@H](C)C1 (some centres unmarked) [compound 413] ... 6.02
COC(=O)CC1(CCC(=O)N2CCN(c3cc(Cl)cc(Cl)c3)CC2)NC(=O)NC1=O (centres unmarked) ... < 4.70
CC(=O)NCC1(CCC(=O)N2CCN(c3cc(Cl)cc(Cl)c3)CC2)NC(=O)NC1=O (centres unmarked) ... < 4.70
C[C@H]1CN(C(=O)CCC2(C)NC(=O)NC2=O)CCN1c1ccc(F)c(Cl)c1 (some centres unmarked) ... < 4.70
COc1ccc(Cl)cc1C1(CCC(=O)N2CCN(c3cccc(Cl)c3)CC2)NC(=O)NC1=O (centres unmarked) ... 5.48
C[C@H]1CN(C(=O)CCC2(C3CC3)NC(=O)NC2=O)CCN1c1cc(F)cc(Cl)c1 (some centres unmarked) ... < 4.70
